targetOrTestSystem: HLA-A*33:01
experimentDescription: IEDB peptide-MHC binding, purified MHC/competitive/radioactivity; filed as Kd, often an IC50 or EC50 that approximates it; bounds were set here for any values at or beyond the usual limits of such assays
appliedConditions: source organism: Vaccinia virus
measurementLabel: Kd
The reply should read as a number followed by its unit.

(Q) # query: Kd of entry "VTSSGTIYK"
(A) 10.2 nM

====

targetOrTestSystem: HLA-B*15:01
experimentDescription: IEDB peptide-MHC binding, purified MHC/competitive/fluorescence; filed as Kd, often an IC50 or EC50 that approximates it; bounds were set here for any values at or beyond the usual limits of such assays
appliedConditions: source organism: Escherichia coli E22
pKd: −log10 of the molar value.
measurementLabel: pKd

(Q) Given "DEIAFGLKL" , state its recorded pKd.
(A) ≤ 4.70

====

targetOrTestSystem: HLA-B*44:02
experimentDescription: IEDB peptide-MHC binding, purified MHC/direct/fluorescence; filed as Kd, often an IC50 or EC50 that approximates it; bounds were set here for any values at or beyond the usual limits of such assays
appliedConditions: source organism: Mycobacterium tuberculosis
pKd: −log10 of the molar value.
measurementLabel: pKd

(Q) Param item = "QQDTNSAGL" ; retrieve measured pKd.
(A) ≤ 4.70

====

targetOrTestSystem: HLA-B*45:01
experimentDescription: IEDB peptide-MHC binding, purified MHC/competitive/radioactivity; filed as Kd, often an IC50 or EC50 that approximates it; bounds were set here for any values at or beyond the usual limits of such assays
appliedConditions: source organism: Mammarenavirus brazilense
measurementLabel: Kd

(Q) Could you share what Kd was measured for "SDHLLSEML" , tested on HLA-B*45:01?
(A) ≥ 77.7 µM

====

targetOrTestSystem: HLA-B*15:09
experimentDescription: IEDB peptide-MHC binding, purified MHC/competitive/fluorescence; filed as Kd, often an IC50 or EC50 that approximates it; bounds were set here for any values at or beyond the usual limits of such assays
appliedConditions: source organism: Coxiella burnetii RSA 331
pKd: −log10 of the molar value.
measurementLabel: pKd

(Q) Which pKd is reported with HLA-B*15:09 for this entry: "HEGDIVPLF" ?
(A) ≤ 4.70

====

targetOrTestSystem: HLA-A*24:03
experimentDescription: IEDB peptide-MHC binding, purified MHC/direct/fluorescence; filed as Kd, often an IC50 or EC50 that approximates it; bounds were set here for any values at or beyond the usual limits of such assays
appliedConditions: source organism: Yersinia pestis CA88-4125
pKd: −log10 of the molar value.
measurementLabel: pKd

(Q) Bench note: what pKd did "LPEAYQWHI" show?
(A) ≤ 4.70

====

targetOrTestSystem: HLA-A*03:01
experimentDescription: IEDB peptide-MHC binding, purified MHC/competitive/fluorescence; filed as Kd, often an IC50 or EC50 that approximates it; bounds were set here for any values at or beyond the usual limits of such assays
appliedConditions: source organism: Four Corners hantavirus
measurementLabel: Kd (nM)
Give the value in nM but do not write nM after it.

(Q) Need Kd, item "KLKKKSAFY"
(A) 45.1

====

Would you mind telling me the reported Kd of each entry?
targetOrTestSystem: HLA-B*27:05
experimentDescription: IEDB peptide-MHC binding, purified MHC/direct/fluorescence; filed as Kd, often an IC50 or EC50 that approximates it; bounds were set here for any values at or beyond the usual limits of such assays
appliedConditions: source organism: Giardia lamblia ATCC 50803

(Q) Name the reported Kd value associated with the sequence "ETESVNSNY"
(A) ≥ 20 µM

(Q) For the sequence shown here, "SHSIPNGLL" , give the reported Kd.
(A) ≥ 20 µM

(Q) I'd like to know its Kd. The sequence in question is "WLKEKHEEL"
(A) ≥ 20 µM

====

Exercise: state measured pKd for each of the sequences provided.
targetOrTestSystem: HLA-A*30:02
experimentDescription: IEDB peptide-MHC binding, purified MHC/competitive/radioactivity; filed as Kd, often an IC50 or EC50 that approximates it; bounds were set here for any values at or beyond the usual limits of such assays
appliedConditions: source organism: Dengue virus 1 Brazil/97-11/1997
Formally, pKd is defined as -log10 of the concentration c, with c in mol/L.

(Q) Given the sequence "TKLEGKIVQY" , what is its reported pKd?
(A) 5.15

(Q) # input sequence: "VHQVFGTAY" ; wanted: its pKd
(A) 6.22

(Q) Entry "RNQNKEGDQY" has what pKd?
(A) 6.92

(Q) Recorded pKd for "KVASEGFQY" , please?
(A) 7.54

====

targetOrTestSystem: HLA-A*69:01
experimentDescription: IEDB peptide-MHC binding, purified MHC/direct/fluorescence; filed as Kd, often an IC50 or EC50 that approximates it; bounds were set here for any values at or beyond the usual limits of such assays
appliedConditions: source organism: Mycobacterium tuberculosis
measurementLabel: Kd

(Q) Which Kd is reported for this sequence? "QQDTNSAGL"
(A) ≥ 20 µM

====

I'd appreciate it if you could supply pKd values for the items below.
targetOrTestSystem: HLA-B*44:03
experimentDescription: IEDB peptide-MHC binding, purified MHC/competitive/radioactivity; filed as Kd, often an IC50 or EC50 that approximates it; bounds were set here for any values at or beyond the usual limits of such assays
appliedConditions: source organism: SARS coronavirus Tor2
Expect pKd as a plain number equal to -log10 of the molar concentration.

(Q) Reported pKd, sequence "AEVQIDRLI" : ____
(A) 7.03

(Q) What pKd value was documented for this sequence, "IDYDCVSFCY" ?
(A) 6.12

(Q) I'd like to know its pKd. The sequence in question is "RERVNINIVG"
(A) 5.17

(Q) // lookup pKd for "SDYDYYRYNL"
(A) 5.01

(Q) Could you tell me which pKd is on file for "NEYRQYLDAY" ?
(A) 7.08

(Q) Give its pKd value. Item: "SEYDYVIFT"
(A) 7.60

(Q) What value of pKd has been reported for the following sequence? "EEAALCTFLL"
(A) 7.88

(Q) GET /values?readout=pKd&item= "VEFLKDAWEI"
(A) 6.21

(Q) Given "REVKTIKVF" , state its recorded pKd.
(A) 7.06

(Q) Could you share which pKd value was measured for "YEGNSPFHPL" ?
(A) 4.77

(Q) What does the record list as pKd for "LEDFKPRSQM" ?
(A) 6.00

====

targetOrTestSystem: HLA-B*39:01
experimentDescription: IEDB peptide-MHC binding, purified MHC/competitive/fluorescence; filed as Kd, often an IC50 or EC50 that approximates it; bounds were set here for any values at or beyond the usual limits of such assays
appliedConditions: source organism: Vaccinia virus WR
measurementLabel: Kd

(Q) I am curious: what Kd value has been reported for "EYYFRNEVF" ?
(A) ≥ 20 µM

====

targetOrTestSystem: HLA-B*58:01
experimentDescription: IEDB peptide-MHC binding, purified MHC/direct/fluorescence; filed as Kd, often an IC50 or EC50 that approximates it; bounds were set here for any values at or beyond the usual limits of such assays
appliedConditions: source organism: Campylobacter jejuni RM1221
measurementLabel: pKd
# log scale: pKd equals minus log10 of the concentration in mol/L

(Q) API: value(readout= pKd, system= HLA-B*58:01, query= "HSNSEYLMF" )
(A) 8.26

====

targetOrTestSystem: HLA-B*58:01
experimentDescription: IEDB peptide-MHC binding, purified MHC/direct/fluorescence; filed as Kd, often an IC50 or EC50 that approximates it; bounds were set here for any values at or beyond the usual limits of such assays
appliedConditions: source organism: Escherichia coli O6
measurementLabel: pKd
Please note pKd is a logarithmic value: minus log10 of concentration in mol/L. Answer with that number alone.

(Q) Look up pKd for this sequence: "KTTLFHTFK"
(A) 5.03

====

targetOrTestSystem: HLA-A*03:01
experimentDescription: IEDB peptide-MHC binding, purified MHC/competitive/fluorescence; filed as Kd, often an IC50 or EC50 that approximates it; bounds were set here for any values at or beyond the usual limits of such assays
appliedConditions: source organism: Escherichia coli str. K-12 substr. MG1655
measurementLabel: Kd
Your answer should be a number followed by the unit of measure.

(Q) Could you share which Kd value was measured for "KIEAPLLLH" ?
(A) 0.116 µM

====

targetOrTestSystem: HLA-B*51:01
experimentDescription: IEDB peptide-MHC binding, purified MHC/competitive/fluorescence; filed as Kd, often an IC50 or EC50 that approximates it; bounds were set here for any values at or beyond the usual limits of such assays
appliedConditions: source organism: Zaire ebolavirus
pKd: −log10 of the molar value.
measurementLabel: pKd

(Q) Which pKd is listed for "AFHQLVQVI" ?
(A) ≤ 4.70

(Q) Consider the sequence "TAAIMLASY" and give its measured pKd.
(A) ≤ 4.70

====

targetOrTestSystem: HLA-A*03:01
experimentDescription: IEDB peptide-MHC binding, purified MHC/direct/fluorescence; filed as Kd, often an IC50 or EC50 that approximates it; bounds were set here for any values at or beyond the usual limits of such assays
appliedConditions: source organism: Salmonella enterica subsp. enterica serovar Typhi
measurementLabel: pKd
Note: pKd values are expressed as the negative base-10 logarithm of concentration in M.

(Q) Please give the measured pKd for this sequence: "HLALTCILK"
(A) 6.91
